Source of measurements: patent US20050208041A1

Assignment: determine reported Kd for the given binders.
Molecular target: T1, purified recombinant IFNAR-1 extracellular fragment (human, UniProt P17181 28-436)
T1 construct: extracellular domain; also called soluble IFNAR-1; soluble IFNAR
T1 sequence (looked up): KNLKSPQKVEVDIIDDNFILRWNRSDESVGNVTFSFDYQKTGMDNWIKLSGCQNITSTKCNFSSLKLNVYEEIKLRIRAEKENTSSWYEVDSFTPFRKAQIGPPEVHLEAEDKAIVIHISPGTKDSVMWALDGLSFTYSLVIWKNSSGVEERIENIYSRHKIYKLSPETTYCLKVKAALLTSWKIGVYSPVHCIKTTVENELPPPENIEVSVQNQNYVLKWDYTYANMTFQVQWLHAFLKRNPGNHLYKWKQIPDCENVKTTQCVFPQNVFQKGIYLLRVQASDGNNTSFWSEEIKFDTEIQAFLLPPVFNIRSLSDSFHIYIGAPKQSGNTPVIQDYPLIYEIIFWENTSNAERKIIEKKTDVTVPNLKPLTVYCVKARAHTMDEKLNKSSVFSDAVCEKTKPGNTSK
Test: Biacore, IFNAR-1 extracellular fragment coupled to CM5 chip, antibody 1.75-80 nM
Give bare numbers, in nM.

Please give Kd, item by item, for the list that follows.
1. H2K1 (antibody, V domains shown, Full-length antibody with human IgG constant regions; also called heavy chain H2 with light chain K1) VH: QVTLKESGPALVKPTQTLTLTCTFSGFSLSTSGMGIGWIRQPPGKALEWLAHIWWDDDKYYNPSLKSRLTISRDTSKNQVVLTMTNMDPVDTATYYCGRNYYPYDAWFDYWGQGTLVTVS VL: DIQMTQSPSSLSASVGDRVTITCSASSSINSNHLHWYQQKPGKAPKLLIYRTSILASGVPSRFSGSGSGTSFTLTISSLQPEDFATYYCQQGSNIPFTFGQGTKVEIKR
2. H3K1 (IgG4) (antibody, V domains shown, also called H3K1 standard; humanized anti-IFNAR-1 mAb H3K1) VH: EVQLVESGGGLVQPGGSLRLSCAFSGFTLSTSGMGIGWVRQAPGKGLEWVAHIWWDDDKYYNPSLKSRFTISRDTSKNTVYLQMNSLRAEDTAVYYCARNYYPYDAWFDYWGQGTLVTVS VL: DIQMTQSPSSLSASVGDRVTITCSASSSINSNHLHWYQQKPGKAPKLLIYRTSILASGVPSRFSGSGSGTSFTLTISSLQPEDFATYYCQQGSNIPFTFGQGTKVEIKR

[A]
[0.8, 3.4]

Please give Kd, item by item, for the list that follows.
1. mouse-human chimeric antibody with 64G12 variable regions and human IgG4 kappa constant regions (antibody, V domains shown, also called Chimeric IgG4; human IgG4 chimeric antibody) VH: QVTLKESGPGILKPSQTLSLTCSFSGFSLSTSGMGIGWIRQPSGKGLEWLAHIWWDDDKYYNPSLKSQLTISRDTSTNQVFLNITSVDTVDTATYYCGRNYYPYDAWFDYWGQGTLVTVS VL: EIVLTQSPTTMAASPGEKITITCSASSSINSNHLHWYQQKPGFSPKVLIYRTSILASGVPTRFSGSGSGTSYSLTIGTMEAEDVATYYCQQGSNIPFTFGSGTELEIKR
2. H2K6 (antibody, V domains shown, Full-length antibody with human IgG constant regions; also called heavy chain H2 with light chain K6) VH: QVTLKESGPALVKPTQTLTLTCTFSGFSLSTSGMGIGWIRQPPGKALEWLAHIWWDDDKYYNPSLKSRLTISRDTSKNQVVLTMTNMDPVDTATYYCGRNYYPYDAWFDYWGQGTLVTVS VL: EIVLTQSPDFQSVTPKEKVTITCSASSSINSNHLHWYQQKPGQSPKLLIYRTSILASGVPSRFSGSGSGTSFTLTINSLEAEDVATYYCQQGSNIPFTFGQGTKLEIKR

[A]
1. 3.6
2. 1.3

Please give Kd, item by item, for the list that follows.
1. murine monoclonal antibody 64G12 (antibody, V domains shown, Mouse IgG1, kappa light chain; also called 64G12 (mouse IgG1); murine anti-IFNAR-1 mAb 64G12) VH: QVTLKESGPGILKPSQTLSLTCSFSGFSLSTSGMGIGWIRQPSGKGLEWLAHIWWDDDKYYNPSLKSQLTISRDTSTNQVFLNITSVDTVDTATYYCGRNYYPYDAWFDYWGQGTLVTVS VL: EIVLTQSPTTMAASPGEKITITCSASSSINSNHLHWYQQKPGFSPKVLIYRTSILASGVPTRFSGSGSGTSYSLTIGTMEAEDVATYYCQQGSNIPFTFGSGTELEIKR
2. H3K6 (antibody, V domains shown, Full-length antibody with human IgG constant regions; also called heavy chain H3 with light chain K6) VH: EVQLVESGGGLVQPGGSLRLSCAFSGFTLSTSGMGIGWVRQAPGKGLEWVAHIWWDDDKYYNPSLKSRFTISRDTSKNTVYLQMNSLRAEDTAVYYCARNYYPYDAWFDYWGQGTLVTVS VL: EIVLTQSPDFQSVTPKEKVTITCSASSSINSNHLHWYQQKPGQSPKLLIYRTSILASGVPSRFSGSGSGTSFTLTINSLEAEDVATYYCQQGSNIPFTFGQGTKLEIKR

[A]
1. 1.2
2. 1.8
